I'd be grateful if you could share measured Activity at Protein Kinase Assays (% of control), Lyn(h) for these entries.
target: Lyn(h) (Homo sapiens, UniProt P07948); assay: Protein kinase selectivity panel; assay type: biochemical; settings: 1.0 μM compound, 10 μM ATP
Sequence (P07948 whole entry): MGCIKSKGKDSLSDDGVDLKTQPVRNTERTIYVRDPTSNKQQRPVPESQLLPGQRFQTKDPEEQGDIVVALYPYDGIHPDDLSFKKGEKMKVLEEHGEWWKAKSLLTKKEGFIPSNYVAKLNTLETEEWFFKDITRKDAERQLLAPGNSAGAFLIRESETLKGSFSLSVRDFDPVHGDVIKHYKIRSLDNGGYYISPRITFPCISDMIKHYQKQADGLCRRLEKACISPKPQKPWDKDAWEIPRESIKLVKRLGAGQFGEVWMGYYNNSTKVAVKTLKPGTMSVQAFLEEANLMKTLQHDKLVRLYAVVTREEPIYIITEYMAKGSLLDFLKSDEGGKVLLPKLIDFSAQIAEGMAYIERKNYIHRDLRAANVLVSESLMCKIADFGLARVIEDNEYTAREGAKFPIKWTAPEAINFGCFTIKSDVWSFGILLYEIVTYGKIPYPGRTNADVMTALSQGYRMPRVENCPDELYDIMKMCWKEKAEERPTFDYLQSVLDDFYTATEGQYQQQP

Sample O=C1NC(=O)C2=C1c1cn(c3ccccc13)CCCc1cc(nc(N3CCCC3)c1)CCCn1cc2c2ccccc21 ; Activity at Protein Kinase Assays (% of control), Lyn(h) observed: 87 % of control

Activity at Protein Kinase Assays (% of control), Lyn(h) reported for this compound CN(C)c1nc2ccc1CCCCn1cc(c3ccccc31)C1=C(C(=O)NC1=O)c1cn(c3ccccc13)CCC2 : 107 % of control

The compound listed as CN(C)c1cc2cc(n1)CCCn1cc(c3ccccc31)C1=C(C(=O)NC1=O)c1cn(c3ccccc13)CCC2 shows Activity at Protein Kinase Assays (% of control), Lyn(h) equal to 76 % of control

Sample O=C1NC(=O)C2=C1c1cn(c3ccccc13)CCCc1ccc(c(N3CCCC3)n1)CCCn1cc2c2ccccc21 ; Activity at Protein Kinase Assays (% of control), Lyn(h) observed: 78 % of control
